Tested on: R275C/beta1
assay: modulators of BK channel variants, profiling panel, selectivity assay, cell-based, U2OS BacMam, thallium flux, beta subunits (AID 1259406);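 note: initial slope of Thallos dye fluorescence rise after thallium is added; log ratio against the mean of 0.3% DMSO vehicle wells on the same plate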
test.parameters: at 30 µM
measure: log fold change Tl+ flux

>>> result_value("C#CCN(C)[C@H](C)Cc1ccccc1")
0.0188
>>> result_value("CC(C)[C@]12O[C@H]1[C@@H]1O[C@]13[C@]1(O[C@H]1C[C@H]1C4=C(CC[C@@]13C)C(=O)OC4)[C@@H]2O")
0.0288
>>> result_value("CCOC(=O)C1(c2ccccc2)CCN(CCC(C#N)(c2ccccc2)c2ccccc2)CC1")
-0.137
>>> result_value("Cc1csc2sc(C=C(C#N)C#N)c(C)c12")
0.0369
>>> result_value("O=c1c2ccccc2[nH]c(=S)n1-c1ccccc1")
0.0238
>>> result_value("O=C1CC[C@@]2(O)[C@H]3Cc4ccc(O)c5c4[C@@]2(CCN3CC2CC2)[C@H]1O5")
0.0294
>>> result_value("CN1CC[C@@H](c2ccc(F)cc2)[C@H](COc2ccc3c(c2)OCO3)C1")
0.146
>>> result_value("C[C@]12CC[C@H]3[C@@H](CCC4=CC(=O)CC[C@@H]43)[C@@H]1CC[C@@H]2O")
0.00735
>>> result_value("FC(F)(F)c1cccc(N2CCNCC2)c1")
0.0717
>>> result_value("NC1=NC(=O)C(c2ccccc2)O1 (stereo unspecified)")
0.00542
>>> result_value("NC(=O)CS(=O)C(c1ccccc1)c1ccccc1 (stereo unspecified)")
0.0162
>>> result_value("c1ccc2c(c1)Nc1ccccc1S2")
0.0203
>>> result_value("CC(C)N(CCC(C(N)=O)(c1ccccc1)c1ccccn1)C(C)C (stereo unspecified)")
-0.022
>>> result_value("CCC(COC(=O)c1cc(OC)c(OC)c(OC)c1)(c1ccccc1)N(C)C (stereo unspecified)")
-0.324
>>> result_value("CN1C(=O)COc2c(C(=O)NC3CN4CCC3CC4)cc(Cl)cc21 (stereo unspecified)")
0.0279
>>> result_value("NCCc1ccccn1")
-0.0664
>>> result_value("C[N+]1(CCC(C(N)=O)(c2ccccc2)c2ccccc2)CCCCC1")
-0.0271
>>> result_value("CCN(CC)CCOC(=O)C(O)(c1ccccc1)c1ccccc1")
-0.0156
>>> result_value("CSC(=NCc1ccccc1Cl)NC(N)=N[N+](=O)[O-]")
-0.0278
>>> result_value("Clc1ccc(COC(Cn2ccnc2)c2ccc(Cl)cc2Cl)c(Cl)c1 (stereo unspecified)")
0.0424
>>> result_value("CCC1(c2ccc(N)cc2)CCC(=O)NC1=O (stereo unspecified)")
-0.00575
>>> result_value("CN1CCN(C(=O)O[C@H]2c3nccnc3C(=O)N2c2ccc(Cl)cn2)CC1")
0.0325
>>> result_value("COc1ccc(CCN)cc1OC")
-0.0128
>>> result_value("COc1ccc(C(CN(C)C)C2(O)CCCCC2)cc1 (stereo unspecified)")
0.0103
>>> result_value("CC1CCC[C@H](O)CCCCCc2cc(O)cc(O)c2C(=O)O1 (stereo partly specified)")
0.141
>>> result_value("O=P1(N(CCCl)CCCl)NCCCO1 (stereo unspecified)")
0.00892

---

assay: HCT116 colon cancer cell growth inhibition, primary screen, CellTiter-Glo luminescence, NPC library (AID 1117342)
test.parameters: at 20 µM (top of the series)
Active and inactive are the calls of the source.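 The calls were made as follows: active = compounds that lower survival of HCT116 colon cancer cells in the luminescence readout, no numeric limit stated; inactive = the rest.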
Classes used: class 1 = active, class 0 = inactive

>>> qualitative_label("CCCCCCCCCCCC[N+](C)(C)CCOc1ccccc1")
"class 1"
>>> qualitative_label("C=CCN1C[C@H](C)N([C@H](c2ccc(C(=O)N(CC)CC)cc2)c2cccc(OC)c2)C[C@H]1C")
"class 0"
>>> qualitative_label("C[C@@H]1C[C@@H]([C@H](O)CC2CC(=O)NC(=O)C2)C(=O)[C@@H](C)C1")
"class 1"
>>> qualitative_label("CC(C)=CC1C(C(=O)OCc2cccc(Oc3ccccc3)c2)C1(C)C (stereo unspecified)")
"class 0"
>>> qualitative_label("ClCCCN1CCN(c2cccc(Cl)c2)CC1")
"class 0"
>>> qualitative_label("C[C@]12CCC(=O)C=C1CC[C@@H]1[C@@H]2CC[C@]2(C)C(=O)CC[C@@H]12")
"class 1"
>>> qualitative_label("NCCC[C@H](N)C(=O)O")
"class 0"
>>> qualitative_label("CCCN1CCC[C@@H]2Cc3nc(N)ncc3C[C@H]21")
"class 0"
>>> qualitative_label("CCCCCCCCOC(=O)c1ccccc1C(=O)OCCCCCCCC")
"class 0"
>>> qualitative_label("CN(C)C(=O)Oc1cc(OC(=O)N(C)C)cc(C(O)CNC(C)(C)C)c1 (stereo unspecified)")
"class 0"
>>> qualitative_label("Clc1ccc(C(c2ccc(Cl)cc2)C(Cl)(Cl)Cl)cc1")
"class 1"
>>> qualitative_label("C1CN2CCC1CC2")
"class 0"
>>> qualitative_label("CCOC(=O)c1ncn2c1CN(C)C(=O)c1c(I)cccc1-2")
"class 0"
>>> qualitative_label("COc1ccccc1N1CCNCC1")
"class 0"
>>> qualitative_label("Cc1nnc2n1-c1sc(CCc3ccc(CC(C)C)cc3)cc1C(c1ccccc1Cl)=NC2C (stereo unspecified)")
"class 1"
>>> qualitative_label("O=C1C(I)=CC(=C(c2cc(I)c(O)c(I)c2)c2ccccc2C(=O)O)C=C1I")
"class 1"

From: PubChem BioAssay
